STUDY_TARGET: UniProt P08908
EXPERIMENT_SUMMARY: 5-HT1A Receptor Intrinsic Activity Assay (forskolin-stimulated cAMP in transfected CHO cells, RIA)
CONDITION_SET: agonist mode: reversal of forskolin (1 µM) stimulated cAMP, CHO cells
PARAMETER_MEASURED: EC50 (nM)

[[record]]
smiles_string = "COc1ccccc1C1CCN(C[C@@H](Cc2ccccc2)NC(=O)C2CCCCC2)CC1"
study_target = "UniProt P08908"
meas_value = 16.9


* * *

STUDY_TARGET: human 5HT1A receptor (Homo sapiens, UniProt P08908)
Construct: expressed in transfected cells; host or cells: CHO cells
Sequence (P08908 whole entry): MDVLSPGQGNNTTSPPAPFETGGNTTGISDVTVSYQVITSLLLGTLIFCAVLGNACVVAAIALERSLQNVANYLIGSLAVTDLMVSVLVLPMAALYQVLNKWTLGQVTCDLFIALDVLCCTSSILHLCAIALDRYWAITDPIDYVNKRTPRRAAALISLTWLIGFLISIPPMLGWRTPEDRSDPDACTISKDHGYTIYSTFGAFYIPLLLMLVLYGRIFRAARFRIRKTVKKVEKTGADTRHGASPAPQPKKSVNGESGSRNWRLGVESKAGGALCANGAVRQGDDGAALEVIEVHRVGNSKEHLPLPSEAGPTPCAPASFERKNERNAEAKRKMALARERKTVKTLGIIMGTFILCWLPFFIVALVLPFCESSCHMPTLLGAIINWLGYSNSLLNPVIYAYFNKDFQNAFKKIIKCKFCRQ
EXPERIMENT_SUMMARY: 5-HT1A Receptor Binding Assay ([3H] 8-OH-DPAT displacement in transfected CHO cells)
CONDITION_SET: displacement of [3H] 8-OH-DPAT (1.5 nM), CHO cells stably transfected with human 5HT1A receptor
PARAMETER_MEASURED: Ki (nM)

[[record]]
smiles_string = "COc1ccccc1C1CCN(C[C@@H](Cc2ccccc2)NC(=O)C2(C)CCCCC2)CC1"
unit_label = "nM"
meas_value = 0.24

[[record]]
smiles_string = "COc1ccc(F)cc1C1CCN(C[C@@H](Cc2ccccc2)N(C)C(=O)C2(C)CCCCC2)CC1"
unit_label = "nM"
meas_value = 10.7

[[record]]
smiles_string = "COc1ccccc1C1CCN(C[C@@H](Cc2ccccc2)NC(=O)C2CCCCC2)CC1"
unit_label = "nM"
meas_value = 0.23

